We begin with a simple list: items and their reported Inhibition.
Tested on: Plasmodium falciparum
Test: GSK_TCMDC: Inhibition of Plasmodium falciparum Dd2 in whole red blood cells, using parasite LDH activity as an index of growth. Test compounds present at 2uM
Assay type: functional
Answer in %, number only, no unit symbol.

O=C(NC1CCCCC1)N(Cc1cccc(-c2ccc(CNC3CCCC3)cc2)c1)C1CCN(Cc2ccccc2)CC1.O=C(O)C(F)(F)F : 89
CN(C)c1ccc(-c2cscc2C(=O)NC2CCCN(Cc3cccnc3)C2)cc1.O=C(O)C(F)(F)F (stereo not drawn) : 70

Task: Provide Inhibition, tested on Plasmodium falciparum, for CN(C)c1ccc(-c2ccc(C(=O)NC3CCN(Cc4ccc5c(c4)OCCO5)CC3)s2)cc1.O=C(O)C(F)(F)F .
Output: 73

Task: Provide Inhibition, tested on Plasmodium falciparum, for O=C(Nc1cccc(OCc2ccccc2)c1)c1ccc(CN2CCC(Cc3ccccc3)CC2)cc1 .
Output: 27

Task: Provide Inhibition, tested on Plasmodium falciparum, for Cc1cc(Nc2ccccc2)nc(Nc2ccccc2C)n1.Cl .
Output: 27

Task: Provide Inhibition, tested on Plasmodium falciparum, for COc1ccccc1C1CCN(C2CCC(NC(=O)/C=C/c3ccc4c(c3)OC(F)(F)O4)CC2)CC1 (stereo not drawn) .
Output: 31

====

We begin with a simple list: items and their reported Inhibition.
Tested on: Plasmodium falciparum
Experiment: GSK_TCMDC: Inhibition of Plasmodium falciparum 3D7 in whole red blood cells, using parasite LDH activity as an index of growth. Test compounds present at 2uM
Type: functional
I'd appreciate it if you wrote the number followed by its unit.

COc1ccccc1-c1csc(C(=O)NC2CCCCN(Cc3ccc(C(C)(C)C)cc3)C2)c1.O=C(O)C(F)(F)F (centres undefined) : 99%
Nc1nc(Cc2ccc(Cl)cc2)nc(Cc2ccc(Cl)cc2)n1 : 85%
Nc1ncc(-c2cn[nH]c2)cc1-c1nc2ccc(F)cc2[nH]1 : 100%

Task: Complete the entry with Inhibition for O=C(O)C(F)(F)F.O=S(=O)(NC1CCCCN(Cc2ccccc2O)C1)c1ccc(C(F)(F)F)cc1 (centres undefined)
Output: 84%

Task: Complete the entry with Inhibition for Cc1cc(NC(=O)Nc2ccc3nccc(N4CCN(C)CC4)c3c2)ccc1Br
Output: 100%

Task: Complete the entry with Inhibition for COc1ccc2nccc([C@@H](O)CN3CCC(NC(=O)/C=C/c4cccc(NC(C)=O)c4)CC3)c2c1
Output: 90%

Task: Complete the entry with Inhibition for O=C(Nc1ccc(-c2nc3ccccc3[nH]2)cc1)C1CCN(Cc2ccc(F)cc2)CC1
Output: 100%

Task: Complete the entry with Inhibition for CCc1ccc(NC(=O)c2ccc(CN3CCCN(Cc4cccc(O)c4)CC3)cc2)cc1.O=C(O)C(F)(F)F
Output: 100%

Task: Complete the entry with Inhibition for COc1cc(C=Cc2ccc3ccccc3n2)cc(Br)c1OCC(=O)N(C)C
Output: 99%

====

Tested on: Plasmodium falciparum
Test: GSK_TCMDC: Inhibition of Plasmodium falciparum 3D7 in whole red blood cells, using parasite LDH activity as an index of growth. Test compounds present at 2uM
Type: functional
measured_attribute: Inhibition (%)
Answer in %, number only, no unit symbol.

Record excerpt, results attached:
Nc1c2c(nc3ccc(NC(=O)c4ccccc4)cc13)CCCC2 : 99
CC(C)c1sc(N2CCN(C)CC2)nc1C(=O)NCCc1ccc(Br)cc1.O=C(O)C(F)(F)F : 89
O=C(Nc1nc2cc(S(=O)(=O)NCc3ccc(Cl)c(Cl)c3)ccc2n1CCCN1CCCC1)c1ccc(Cl)cc1.O=C(O)C(F)(F)F : 89
O=C(O)C(F)(F)F.c1ccc(-n2ncc(CNCc3ccc(-c4cccc(-c5nc6ccccc6[nH]5)c4)cc3)n2)cc1 : 94
OC(CNCc1ccccc1Oc1ccccc1)c1cc(Br)cs1 (stereo not drawn) : 94

Task: Complete the entry with Inhibition for CC(C)NCc1ccc(-c2ccc(-c3nc4cc(C(F)(F)F)ccc4[nH]3)s2)cc1.O=C(O)C(F)(F)F
Output: 100

Task: Complete the entry with Inhibition for COc1ccc(C(=O)C2CCN(CCCCNC(=O)c3ccc(NC(=O)c4cc(Cl)cc(Cl)c4)cc3)CC2)cc1
Output: 100

Task: Complete the entry with Inhibition for N#CN1CC[C@H](CS(=O)(=O)c2cccc(Br)c2)C1
Output: 88

====

System: Plasmodium falciparum
Assay: GSK_TCMDC: Inhibition of Plasmodium falciparum Dd2 in whole red blood cells, using parasite LDH activity as an index of growth. Test compounds present at 2uM
Format: functional
We begin with a simple list: items and their reported Inhibition.
Answer in %, number only, no unit symbol.

O=C(CSc1nnc(-c2ccccc2Br)[nH]1)c1c[nH]c2ccccc12 : 95

Task: Complete the entry with Inhibition for O=C(NCCc1ccccc1)N(Cc1ccccc1-c1ccc(CNC2CCCC2)cc1)C1CCN(Cc2ccccc2)CC1.O=C(O)C(F)(F)F
Output: 95

Task: Complete the entry with Inhibition for O=C(/C=C/c1ccc(Cl)c(Cl)c1)NCCCCCN1CCCN(C(=O)Nc2ccc(Cl)c(C(F)(F)F)c2)CC1
Output: 16

Task: Complete the entry with Inhibition for COc1cccc2cc(C(=O)N[C@@H](CC(C)C)C(=O)N[C@H](/C=N/N(C)C(=O)OC(C)(C)C)CC(=O)OC(C)(C)C)oc12
Output: 67

====

Test system: HepG2
Experiment: GSK_TCMDC: Percent inhibition of human HepG2 cell line. Test compounds present at 10uM.
Assay type: functional
measured_attribute: Inhibition (%)
Answer in %, number only, no unit symbol.

CCN(CC)C(=O)C1CCCN(c2cc(C)nc(Nc3ccc(Cl)cc3)n2)C1 (configuration not stated) : 13

Task: Provide Inhibition, tested on HepG2, for CCSc1nc2sc3c(c2c(=O)n1-c1ccccc1)CCN(C)C3 .
Output: 16

Task: Provide Inhibition, tested on HepG2, for O=C(C=Cc1ccc(Cl)c(Cl)c1)NCCCCCN1CCCC(CCCNC(=O)/C=C/c2ccccc2)C1 (configuration not stated) .
Output: 92

Task: Provide Inhibition, tested on HepG2, for CC(Oc1ccc(Cl)cc1Cl)c1nc(-c2ccc(NC(=O)c3ccco3)cc2)no1 (configuration not stated) .
Output: 7

Task: Provide Inhibition, tested on HepG2, for C[C@H](CNc1ccnc(Nc2ccc3[nH]c(=O)[nH]c3c2)n1)c1ccccc1 .
Output: 50

Task: Provide Inhibition, tested on HepG2, for CCc1cc2c3c(N)nc(N)nc3ccc2n1C(CC)CC .
Output: 71

Task: Provide Inhibition, tested on HepG2, for COc1ccc2[nH]ccc(=NN=Cc3ccccc3Cl)c2c1 .
Output: 29

Task: Provide Inhibition, tested on HepG2, for Cn1cncc1CCN(Cc1ccc(-c2ccc(C(F)(F)F)cc2)cc1)C(=O)Cn1c(CCc2cccc(F)c2F)cc(=O)c2cccnc21 .
Output: 44

Task: Provide Inhibition, tested on HepG2, for Cc1cccc(-c2ccc(NC(=O)C3CCN(Cc4cccc(O)c4)CC3)cc2)c1 .
Output: 21

Task: Provide Inhibition, tested on HepG2, for Cc1cccc2nc(-c3cccc(-c4cccc(CNCCCN5CCCC5=O)c4)c3)[nH]c12.O=C(O)C(F)(F)F .
Output: 9

Task: Provide Inhibition, tested on HepG2, for O=C(/C=C/c1ccc(Cl)c(Cl)c1)NCCCCCN1CCC(NC(=O)Nc2ccc([N+](=O)[O-])cc2)CC1 .
Output: 20

====

Tested on: Plasmodium falciparum
Assay: GSK_TCMDC: Inhibition of Plasmodium falciparum 3D7 in whole red blood cells, using parasite LDH activity as an index of growth. Test compounds present at 2uM
Format: functional
We begin with a simple list: items and their reported Inhibition.
Answer in %, number only, no unit symbol.

Task: Complete the entry with Inhibition for Cc1ccc(N(CCC(=N)N)Cc2ccccc2)cc1.Cl
Output: 96

====

System: HepG2
Assay: GSK_TCMDC: Percent inhibition of human HepG2 cell line. Test compounds present at 10uM.
Format: functional
Label rule, in plain words: Inhibition of 20% and up is met, under 20% is not met.

CCOC(=O)c1ccc(NC(=O)NC2CCN(CCCCCNC(=O)/C=C/c3ccc(Cl)c(Cl)c3)C2)cc1 (stereo not given) : met
N#Cc1ccc(C(=O)Nc2cc(-c3cccc(O)c3)cc3[nH]ncc23)cc1 : not met
Cl.O=S(=O)(Nc1ccc2nccc(N3CCNCC3)c2c1)c1ccc2oc3ccccc3c2c1 : not met
CC(CN(C)C)C(=O)Nc1cccc(-c2cccc(-c3nc4cc(F)ccc4[nH]3)c2)c1 (stereo not given) : met

Please find the next compound below.
Task: Hi team, for COc1cc(NC(=O)CCCCCCCCN2CCN(C)CC2)c2ncccc2c1 , is the recorded Inhibition at or above 20%?
Output: not met

====

System: HepG2
Test: GSK_TCMDC: Percent inhibition of human HepG2 cell line. Test compounds present at 10uM.
Format: functional
Label rule, in plain words: Inhibition of 30% and up is Yes, under 30% is No.

Cc1sc(CNCCCNc2cc(=O)c3ccccc3[nH]2)cc1Br : No
N#Cc1ccc(-c2ccc(C(=O)NCCCCN3CCC(n4cnc5ccccc54)CC3)cc2)cc1 : No
Cl.O=C(NC1CCC(CCN2Cc3ccc(Br)cc3C2)CC1)c1cccc(-c2cccnc2)c1 (configuration not stated) : No
O=C(N[C@@H](Cc1ccccc1)C(=O)NCCN1CCCC1)c1ccc(O)c(-c2ccc(Cl)c(Cl)c2)c1 : No
CC(Cc1ccc(CN(CC(N)=O)Cc2ccc(CC(C)NCCc3cccc(Cl)c3)cc2)cc1)NCCc1cccc(Cl)c1.O=C(O)C(F)(F)F (configuration not stated) : No
O=c1cc(NCCCNC(CNCCc2ccccc2)c2cc(Br)cc(Br)c2)[nH]c2ccccc12 (configuration not stated) : No

Task: Hi team, for Cc1ccc(CNC(=O)[C@H](CCCN)Nc2nc(Nc3ccccc3)ncc2C)cc1.O=C(O)C(F)(F)F , is the recorded Inhibition at or above 30%?
Output: No

Task: Hi team, for O=C(NC(c1ccccc1)c1ccc2cccnc2c1O)c1ccccc1 (configuration not stated) , is the recorded Inhibition at or above 30%?
Output: Yes

Task: Hi team, for CN(CCN(C)C(=O)NCc1ccccc1)C(=O)NCc1ccccc1 , is the recorded Inhibition at or above 30%?
Output: No

Task: Hi team, for Nc1nccc2ccc(-c3ccc(Oc4ccccc4)cc3)cc12.O=C(O)C(F)(F)F , is the recorded Inhibition at or above 30%?
Output: Yes

Task: Hi team, for CCc1ccc(CN2CCC(CN(c3ccc(N4CCOCC4)c(F)c3)S(=O)(=O)c3ccc(C(C)(C)CC)cc3)CC2)cc1.Cl , is the recorded Inhibition at or above 30%?
Output: No

Task: Hi team, for Cc1ccc2c(c1[N+](=O)[O-])N=NCC2Oc1ccccc1 (configuration not stated) , is the recorded Inhibition at or above 30%?
Output: No

Task: Hi team, for COc1cc(C(=O)Nc2cccc(-c3nc4ccccc4[nH]3)c2)cc(OC)c1OC , is the recorded Inhibition at or above 30%?
Output: No

Task: Hi team, for COc1cc2nc(N3CCN(C(=O)c4cccc(I)c4)CC3)nc(N)c2cc1OC , is the recorded Inhibition at or above 30%?
Output: No

Task: Hi team, for Cc1cnc(NCCc2ccc(F)cc2)nc1N[C@@H](CC(C)C)C(=O)Nc1ccccc1.O=C(O)C(F)(F)F , is the recorded Inhibition at or above 30%?
Output: No

Task: Hi team, for O=c1cc(NCCCNCc2cccc3c2OC(F)(F)O3)[nH]c2ccccc12 , is the recorded Inhibition at or above 30%?
Output: No

Task: Hi team, for CN(C)CC(O)COc1ccc(Nc2ncc([N+](=O)[O-])c(Nc3ccccc3O)n2)cc1.O=C(O)C(F)(F)F (configuration not stated) , is the recorded Inhibition at or above 30%?
Output: Yes

Task: Hi team, for CCCCN(Cc1cc(Cl)c(OCC)c(OC)c1)c1ccc(C(O)(C(F)(F)F)C(F)(F)F)cc1.O=C(O)C(F)(F)F , is the recorded Inhibition at or above 30%?
Output: No

Task: Hi team, for COc1ccc(NC(=O)N2CCCN(CCCCCNC(=O)/C=C/c3ccc(Cl)cc3)CC2)cc1Cl , is the recorded Inhibition at or above 30%?
Output: No
